List of inhibition values.
target: AP-2 complex subunit beta (Homo sapiens) (UniProt P63010); assay: beta-arrestin/AP2 interaction blockers – biochemical, validation set, GST-AP2 beads, flow cytometry, pilot screen (AID 504541); settings: FITC arrestin peptide, at 10 µM, stronger effect = higher value, AP2 beta2 appendage fragment, R879A mutant;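 note: AP2 carries R879A mutation and is captured from E. coli lysate; bead-bound FITC arrestin peptide fluorescence measuring arrestin peptide binding to AP2; 0% = DMSO wells and 100% = excess unlabeled arrestin peptide control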
Sequence (P63010 whole entry, looked up, the tested form may be a part, one chain of several): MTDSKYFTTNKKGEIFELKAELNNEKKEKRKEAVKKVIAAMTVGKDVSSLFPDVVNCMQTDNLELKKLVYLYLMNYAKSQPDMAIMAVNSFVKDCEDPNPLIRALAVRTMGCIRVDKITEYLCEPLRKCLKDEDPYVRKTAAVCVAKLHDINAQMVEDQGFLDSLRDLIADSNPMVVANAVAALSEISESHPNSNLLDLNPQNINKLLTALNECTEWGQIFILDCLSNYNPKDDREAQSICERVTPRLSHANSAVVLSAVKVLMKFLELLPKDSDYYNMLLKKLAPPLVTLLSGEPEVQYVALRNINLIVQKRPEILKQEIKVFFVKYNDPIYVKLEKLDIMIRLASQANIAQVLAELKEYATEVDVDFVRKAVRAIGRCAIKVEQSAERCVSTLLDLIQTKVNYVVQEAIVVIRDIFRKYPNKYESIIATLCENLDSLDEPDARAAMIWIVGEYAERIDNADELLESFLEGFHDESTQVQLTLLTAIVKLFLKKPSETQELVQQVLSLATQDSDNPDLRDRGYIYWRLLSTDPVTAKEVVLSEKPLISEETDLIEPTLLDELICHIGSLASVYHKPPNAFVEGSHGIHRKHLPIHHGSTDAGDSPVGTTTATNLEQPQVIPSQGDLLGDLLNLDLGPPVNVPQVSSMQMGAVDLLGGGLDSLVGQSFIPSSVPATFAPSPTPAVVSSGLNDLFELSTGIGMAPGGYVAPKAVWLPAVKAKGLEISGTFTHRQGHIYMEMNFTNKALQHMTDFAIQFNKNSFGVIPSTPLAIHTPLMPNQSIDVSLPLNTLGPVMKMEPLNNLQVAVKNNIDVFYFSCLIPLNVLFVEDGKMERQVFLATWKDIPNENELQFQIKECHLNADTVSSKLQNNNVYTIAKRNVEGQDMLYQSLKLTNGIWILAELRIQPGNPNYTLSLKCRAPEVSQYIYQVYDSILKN
Form entry: value (%) — number only.

These solved cases illustrate the format of a correct answer.
compound: COc1ccc2cc(C3(C)NC(=O)NC3=O)ccc2c1 (stereo unspecified)
inhibition / %: -3.7
//
compound: CCC(C)NCCOCCOc1ccc(Cl)cc1Br (stereo unspecified)
inhibition / %: 57.1
//
compound: COc1cccc(CC2CC(=O)N(c3ccc4c(C)cc(=O)oc4c3)C2=O)c1 (stereo unspecified)
inhibition / %: -2.24
//
compound: COc1c(O)ccc2c1CN1CCc3cc4c(cc3C1C2)OCO4 (stereo unspecified)
inhibition / %: 30.3
//
compound: COc1ccc(NC2=C(Cl)C(=O)N(c3ccccc3)C2=O)c(OC)c1
inhibition / %: 0.15

Input line: Consider the compound CN(C)CCC(c1ccc(Cl)cc1)c1ccccn1 (stereo unspecified) and give its measured inhibition.
Output line: 4.35

Input line: Try the compound Cc1cc(=O)oc2cc(OC(C)C(=O)NCC3CCCO3)ccc12 (stereo unspecified)
Output line: -3.92

----------
experiment: reduced mouse 2C T cell binding to pMHC/ICAM-1 vesicles – MLPCN validation set, flow cytometry, LFA-1/ICAM-1 modulator project, pilot screen (AID 2523); conditions: 2C mouse CD8+ T cells, at 7 µM, stronger effect = lower value; measured here: CD8+/vesicle+ event percentage
Each record is given Met if its reported double positive events is strictly below 60%. Records at or above 60% are given Not met.

Example entries begin here.
compound: CC(=O)OC1c2c(ccc3ccc(=O)oc23)OC(C)(C)C1OC(=O)CC(C)C (centres undefined)
answer.label: Not met
--
compound: O=C(O)CCSCCC(=O)O
answer.label: Not met
--
compound: COc1cc(CNCCc2c[nH]c3ccccc23)cc(Cl)c1OCC(N)=O
answer.label: Not met
--
compound: CC(=O)OCC(=O)[C@H]1CC[C@H]2[C@@H]3CCC4=CC(=O)CC[C@]4(C)[C@H]3CC[C@]12C
answer.label: Met
--
compound: COc1ccc(CC(=O)NCC2(c3ccc(OC)c(OC)c3)CCOCC2)cc1
answer.label: Met
--
compound: NCCCC(N)(C(=O)O)C(F)F (centres undefined)
answer.label: Not met
--
compound: CC(C)(C)C(=O)N1CCCC1C(=O)O (centres undefined)
answer.label: Not met
--
compound: Cc1ccccc1C(=O)NNc1ncnc2c1cnn2C
answer.label: Not met

Input line: For CSCC[C@H](NC(=O)NC1CCCC1)C(=O)O , is the recorded double positive events below the cut-off of 60%?
Output line: Not met

Input line: Try the compound c1ccc(SSc2ccccc2)cc1
Output line: Not met

Input line: Try the compound COc1ccc(N2CCN(C(=S)NCc3ccccc3)CC2)cc1
Output line: Not met

Input line: Try the compound CC(=O)N(CCC1(c2ccc(C)cc2)CCOC(C(C)C)C1)Cc1ccco1 (centres undefined)
Output line: Met

----------
List of percent response of DMSO control values.
assay: TOR pathway RTG branch CIT2 reporter changes – S. cerevisiae, GFP fusion, multiplex flow cytometry, primary screen (AID 1870);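 note: barcoded CIT2-GFP strain pooled with four other GFP strains with rapamycin as positive control; median GFP fluorescence per well over plate mean of DMSO wells so 100% = DMSO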; conditions: S. cerevisiae CIT2-GFP expression, 3 h, at 10 µM, stronger effect = higher value
Form entry: value (%) — number only.

molecule: Cc1cccc(N2CCN(C(=S)c3ccccc3)CC2)c1
percent response of DMSO control / %: 100

molecule: CCOc1ccc(C(NC(C)=O)c2ccc(OC)c(OC)c2)cc1 (stereo unspecified)
percent response of DMSO control / %: 99.3

molecule: CC(C)CC(NC(=O)CNC(=O)C1O[C@@H]2OC(C)(C)O[C@@H]2[C@H]2OC(C)(C)O[C@@H]12)C(=O)O (stereo partly specified)
percent response of DMSO control / %: 102

molecule: Cc1ccc(C(=O)O)cc1NC(=O)c1cccs1
percent response of DMSO control / %: 99.3

Input line: Consider the molecule O=c1cc(CN2CCN(c3cccc(Cl)c3)CC2)c2cc(O)c(-c3ccccc3)cc2o1 and give its measured percent response of DMSO control.
Output line: 102

Input line: Try the molecule O=C1CCc2cc(OCCCCc3nnnn3C3CCCCC3)ccc2N1
Output line: 101

Input line: Try the molecule CC1(C)C(=O)OC(c2cccs2)C2(CCCCC2)C1=O (stereo unspecified)
Output line: 96.6

Input line: Try the molecule C1CCC(C(CC2CCCCN2)C2CCCCC2)CC1 (stereo unspecified)
Output line: 101

Input line: Try the molecule CC(C)COCC1CC2(CC(C)(c3csc(N)n3)OC2=O)C(=O)O1 (stereo unspecified)
Output line: 102

Input line: Try the molecule CCc1oc2ccccc2c1C(=O)c1cc(Br)c(O)c(Br)c1
Output line: 106

Input line: Try the molecule CCOc1ccc(C(=O)NCC2(c3ccccc3)CCOCC2)cc1
Output line: 108
